system: UACC-62 melanoma; assay: NCI tumour cell line growth inhibition, 48 h
Reported TGI is given for each of the following compounds.

INSERT INTO results (compound, readout_value) VALUES
  ('CCCCOc1ccc(S(=O)(=O)/N=C(\N)Nc2ccc(Cl)cc2)cc1', '27.1 µM');

Fill in: TGI of O=S(=O)(O)c1ccc2c(N=Nc3c(O)ccc4ccccc34)cccc2c1 is ___
> 100 µM

Fill in: TGI of CC1=NN(C(=O)c2ccc(C)cc2)C(=O)C1N=Nc1ccccc1C(=O)O (stereo unspecified) is ___
> 100 µM

* * *

system: OVCAR-5 ovarian; assay: NCI tumour cell line growth inhibition, 48 h
reported.property: GI50

# example entries with known answers
INSERT INTO results (molecule, tested_on, readout_value) VALUES
  ('Cc1nn2c(-c3nc4cc(Cl)c(Cl)cc4[nH]3)c(-c3ccc(F)cc3)nc2s1', 'OVCAR-5 ovarian', '8.98 µM'),
  ('CC(=O)OC1COC(Oc2c(C)c3c4c(c2O)[C@@H](C)CC[C@@H]4[C@@H](C)C[C@H]3C=C(C)C)C(O)C1O (stereo not given in full)', 'OVCAR-5 ovarian', '18.1 µM'),
  ('CCOC(=O)C1=CSC2=NC3=C(CCC/C3=C\c3cc(OC)c(OC)c(OC)c3)C(c3cc(OC)c(OC)c(OC)c3)N12 (stereo not given)', 'OVCAR-5 ovarian', '> 100 µM'),
  ('Cc1ccc(-c2nc(C(Cl)Cl)nc3cc(C)nn23)cc1', 'OVCAR-5 ovarian', '2.22 µM');

Next molecule, please.
Recorded GI50 for Cc1cn2c(/C=C3/C(=O)Nc4ccc(C(=O)O)cc43)c(C)nc2s1 with OVCAR-5 ovarian, please?
> 100 µM

* * *

Reported TGI is given for each of the following compounds.
tested on: SK-OV-3 ovarian; assay: NCI tumour cell line growth inhibition, 48 h
Where a SMILES comes first, the peptide text is derived from it. The star is where a group is joined. Boc = CC(C)(C)OC(=O)*; tBu = CC(C)(C)*

INSERT INTO assay_data (compound, readout_value) VALUES
  ('CCN(CC)Cc1ccc(Nc2c3ccccc3nc3ccccc23)cc1', '5.56 µM'),
  ('O=C(NN1C(=O)C(Cl)C1c1c(O)ccc2ccccc12)c1ccccc1O (stereo not given)', '> 100 µM'),
  ('O=C1c2ccoc2C(=O)c2oc(=O)ccc21', '> 57.9 µM'),
  ('Cn1c(SCc2c[nH]c3ccccc23)nnc1-c1ccc(Cl)cc1Cl', '59.4 µM'),
  ('CC(OC(C)(C)C)C(NC(=O)C(N)CCCCNC(=O)OC(C)(C)C)C(=O)NC(Cc1ccccc1)C(=O)O (stereo not given) (H-Lys(Boc)-Thr(tBu)-Phe-OH; configuration not given here)', '> 100 µM'),
  ('NCC(Cc1ccccc1)P(=O)(O)O (stereo not given)', '> 100 µM');

Fill in: TGI of Nc1ccn([C@@H]2S[C@H](CO)[C@@H](O)[C@@H]2F)c(=O)n1 is ___
> 100 µM

Fill in: TGI of Cc1cc(-c2ccco2)cc(C)c1/C=C/c1cncc(-c2nn[nH]n2)c1 is ___
> 25 µM

Fill in: TGI of CC1=C2CC(C)(C)CC(=O)C2(C)CCC1=O (stereo not given) is ___
> 100 µM

Fill in: TGI of Cc1cc2c3c(c1)CCCN3CCC2 is ___
> 10 µM

* * *

tested on: KM12 colon; test: NCI tumour cell line growth inhibition, 48 h
Reported TGI is given for each of the following molecules.
Give the quantity in µM, number only.

INSERT INTO measurements (molecule, tested_on, reported_property, readout_value) VALUES
  ('CC(=O)N1c2ccccc2[C@H]2CCc3c([nH]c4ccccc34)[C@H]21', 'KM12 colon', 'TGI', 39.5),
  ('O=c1c2ccccc2n2cnc3ccc(NCCNCCO)c1c32', 'KM12 colon', 'TGI', 5.72);

Next molecule, please.
Fill in: TGI of COC(=O)[C@]1(C)[C@H]2C[C@H]3O[C@H]4[C@H](O)[C@@H](O)OC(CC(O)C(C5=CC(=O)OC5)C(C5=CC(=O)OC5)C(O)CC56CCCCC7[C@@H](C)[C@H](C[C@H]8[C@](C)(C(=O)OC)[C@H](O)CC[C@]78C)O[C@H]([C@@H](O)[C@H](O)O5)[C@H]6O)(CCCCC([C@@H]3C)[C@]2(C)CC[C@@H]1O)[C@H]4O (some centres not stated) is ___
1.97

* * *

tested on: MDA-N; assay: NCI tumour cell line growth inhibition, 48 h
reported.property: log10 TGI (log10 of the value in µM)
Hello, just confirming the data are log10 of TGI with units of µM.

Fill in: log10 TGI of NC(N)=N/N=C/c1c(-c2ccc(Cl)cc2)nc2sc(Cl)cn12 is ___
0.50

Fill in: log10 TGI of O=C1c2ccccc2-n2c1nc1ccc(Cl)cc1c2=O is ___
1.68

Fill in: log10 TGI of COC1(c2ccccc2)NC(=S)NN=C1c1ccccc1 (centres undefined) is ___
1.65

Fill in: log10 TGI of CCCCC1Cc2cc(OC)ccc2-c2n1c1cc(OC)ccc1[n+]2C (centres undefined) (tested in a mixture with another compound) is ___
1.05

Fill in: log10 TGI of C/C(=N\Nc1nc2ccccc2n1C)c1ccc2ccccc2n1 is ___
1.58

Fill in: log10 TGI of CCOC(=O)[C@@H]1C[C@@H]1c1ccc(O)c(O)c1 is ___
1.55

* * *

system: SK-MEL-5 melanoma; assay: NCI tumour cell line growth inhibition, 48 h
Reported TGI is given for each of the following compounds.
Give the quantity in µM, number only.

INSERT INTO assay_data (compound, reported_property, units_symbol, readout_value) VALUES
  ('CCCCC1Cc2cc(OC)ccc2-c2n1c1cc(OC)ccc1[n+]2C (centres undefined) (tested in a mixture with another compound)', 'TGI', 'µM', 3.76),
  ('COc1ncc2cc1NS(=O)(=O)c1cccc(c1)C(=O)NCC1=CC=C(S1)c1ncnc3c1SC2=C3C', 'TGI', 'µM', 0.151),
  ('CCC1=C(c2ccc(OC)cc2)CC[C@]2(CCNC2=O)[C@@H]1C', 'TGI', 'µM', 31.1),
  ('O=C(Nc1cccc(-n2cc(-c3ccncc3)c(-c3ccc(O)c(Cl)c3)n2)c1)Nc1ccc(Cl)c(Cl)c1', 'TGI', 'µM', 2.99);

Fill in: TGI of Nc1c(C(=O)Nc2ccccn2)sc2nc3c(cc12)CCCCCC3 is ___
7.22

* * *

system: SNB-75 CNS; assay: NCI tumour cell line growth inhibition, 48 h
reported.property: GI50

INSERT INTO measurements (item_smiles, reported_property, readout_value) VALUES
  ('CC1(C)CC(O)CC(C)(C)N1.CC1(C)CC(O)CC(C)(C)N1.CC1(C)CC(O)CC(C)(C)N1.CC1(C)CC(O)CC(C)(C)N1.Cl.[Ti]', 'GI50', '> 100 µM'),
  ('c1ccc2c(c1)[O][Sn][O]2', 'GI50', '100 µg/mL');

Fill in: GI50 of Oc1c(I)cc(Cl)c2cccnc12 is ___
4.42 µM

* * *

Reported TGI is given for each of the following compounds.
tested on: HCT-15 colon; test: NCI tumour cell line growth inhibition, 48 h

# example entries with known answers
INSERT INTO assay_data (item_smiles, tested_on, reported_property, readout_value) VALUES
  ('CC(=O)Oc1ccc(/C=C/C(=O)NCCOC(=O)/C=C/c2ccc(OC(C)=O)c(OC(C)=O)c2)cc1OC(C)=O', 'HCT-15 colon', 'TGI', '> 100 µM'),
  ('COc1ccc2c(C(=O)c3c(C)n(CCN4CCOCC4)c4ccccc34)cccc2c1', 'HCT-15 colon', 'TGI', '> 100 µM');

Next compound, please.
Fill in: TGI of O=C(O)C1=C(C(=O)O)Oc2ccccc2O1 is ___
> 100 µM

* * *

Reported GI50 is given for each of the following compounds.
test system: COLO 205 colon; test: NCI tumour cell line growth inhibition, 48 h

Fill in: GI50 of O=C(Nc1cccc(-n2cc(-c3ccncc3)c(-c3ccc(O)c(Cl)c3)n2)c1)Nc1ccc(Cl)c(Cl)c1 is ___
2500 nM

Fill in: GI50 of CCc1ccc(C2=NN(c3ccc(S(C)(=O)=O)cc3)C(=O)CC2)cc1 is ___
1050 nM

Fill in: GI50 of Cc1ccc(C(=O)N2C/C(=C/c3ccccc3)C(=O)/C(=C/c3ccccc3)C2)cc1 is ___
8700 nM

Fill in: GI50 of C=C(C)[C@@H]1CC[C@]2(C(=O)n3ccnc3)CC[C@]3(C)[C@H](CC[C@@H]4[C@@]5(C)CCCNC(C)(C)[C@@H]5CC[C@]43C)[C@@H]12 is ___
1520 nM

Fill in: GI50 of Cc1cn2c(/C=C3/C(=O)Nc4ccc(C(=O)O)cc43)c(C)nc2s1 is ___
> 100000 nM
